Target desc: murine Smo D477G (Mus musculus, UniProt P56726, D477G)
Construct: Flag
Sequence (P56726 33-793 D477G): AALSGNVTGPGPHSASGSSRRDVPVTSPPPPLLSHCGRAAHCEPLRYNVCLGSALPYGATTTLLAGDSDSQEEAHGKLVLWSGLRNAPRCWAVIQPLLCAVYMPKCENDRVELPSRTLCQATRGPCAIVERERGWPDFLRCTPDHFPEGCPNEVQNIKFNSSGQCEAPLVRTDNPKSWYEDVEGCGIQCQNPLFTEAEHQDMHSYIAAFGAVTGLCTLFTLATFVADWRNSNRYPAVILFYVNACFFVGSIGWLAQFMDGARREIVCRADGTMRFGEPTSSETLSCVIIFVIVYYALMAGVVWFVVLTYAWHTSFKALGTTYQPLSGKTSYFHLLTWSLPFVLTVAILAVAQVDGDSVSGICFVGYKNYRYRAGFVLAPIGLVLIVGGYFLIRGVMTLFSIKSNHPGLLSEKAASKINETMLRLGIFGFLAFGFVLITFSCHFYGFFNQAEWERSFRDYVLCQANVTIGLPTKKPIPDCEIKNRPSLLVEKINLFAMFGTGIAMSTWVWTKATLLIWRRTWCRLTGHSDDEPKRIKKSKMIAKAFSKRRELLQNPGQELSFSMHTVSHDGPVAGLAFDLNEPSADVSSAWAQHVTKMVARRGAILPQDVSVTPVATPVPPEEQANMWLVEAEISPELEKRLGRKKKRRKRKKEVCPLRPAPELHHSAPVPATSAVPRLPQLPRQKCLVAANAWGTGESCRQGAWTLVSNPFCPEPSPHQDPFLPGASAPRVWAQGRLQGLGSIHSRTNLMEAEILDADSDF
Experimental protocol: Bodipy-Cyclopamine (BC) binding assay, HEK293T cells transfected with mouse Smo D477G
Particulars: BC (5 nM) displacement, transiently transfected 293T cells
Value kind: pIC50
Numbers only, as −log10 of the molar value.

Record summary for `COc1ccc(C=CC(=O)c2cc(OC)c(OC)cc2OC)cc1OC` : reported pIC50 = 4.25

====

Target desc: human Smo D473H (Homo sapiens, UniProt Q99835, D473H)
Construct: Myc-DDK
Sequence (Q99835 28-787 D473H): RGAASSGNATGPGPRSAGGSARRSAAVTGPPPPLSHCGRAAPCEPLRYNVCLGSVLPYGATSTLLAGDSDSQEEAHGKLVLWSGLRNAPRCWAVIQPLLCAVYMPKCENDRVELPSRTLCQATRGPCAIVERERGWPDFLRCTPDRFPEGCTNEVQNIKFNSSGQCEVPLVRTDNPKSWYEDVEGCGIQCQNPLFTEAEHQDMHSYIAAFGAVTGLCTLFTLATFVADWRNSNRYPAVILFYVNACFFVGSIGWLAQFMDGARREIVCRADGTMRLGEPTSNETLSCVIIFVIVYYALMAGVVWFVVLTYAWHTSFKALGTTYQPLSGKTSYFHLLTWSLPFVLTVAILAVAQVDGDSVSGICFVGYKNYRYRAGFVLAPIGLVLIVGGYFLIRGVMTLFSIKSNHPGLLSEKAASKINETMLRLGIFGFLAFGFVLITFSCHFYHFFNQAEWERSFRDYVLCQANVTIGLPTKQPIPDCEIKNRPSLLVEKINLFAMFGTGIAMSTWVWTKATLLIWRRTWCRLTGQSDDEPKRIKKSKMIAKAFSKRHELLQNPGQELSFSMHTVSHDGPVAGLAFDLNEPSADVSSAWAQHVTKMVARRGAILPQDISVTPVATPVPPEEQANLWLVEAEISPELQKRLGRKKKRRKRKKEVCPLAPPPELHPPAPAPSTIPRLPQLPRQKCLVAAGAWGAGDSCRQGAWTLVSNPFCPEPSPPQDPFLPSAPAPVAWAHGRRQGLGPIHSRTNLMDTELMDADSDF
Experimental protocol: Bodipy-Cyclopamine (BC) binding assay, HEK293T cells transfected with human Smo D473H
Particulars: BC (5 nM) displacement, transiently transfected 293T cells
Value kind: IC50
Be sure to follow the number with its unit.

Documented IC50 of COc1ccc(C=CC(=O)c2cc(OC)c(OC)cc2OC)cc1OC [Compound 12] : 22.7 µM

The measurements presented in this section are drawn from paper PMC5059851.
